METHOD_NOTES: Emulsification test after simulated long term storage at 50° C. (Testing Example 6)
Assay type: physicochemical
RECORDED_CONDITIONS: Base oil Group III; Alcohol ethoxylate/alkyl glyceride; 70 days of storage (50° C.); 10 = best, 1 = worst
MEASURED_METRIC: Emulsion Rating (1-10)

> print(dat)
                                   molecule  test.value
1                      CCCOC(=O)c1ccc(O)cc1           5
2  O=C([O-])c1ccccc1.[Na+] [Sodium benzoate, sodium benzoate]           6
3                        COC(=O)c1ccc(O)cc1           5
4                            O=C(O)c1ccccc1           7
